Listed here: items and their measured pIC50.
# Test system: human lung cancer strain NCI-H441
# PROTOCOL NOTES: NCI-H441 cell proliferation inhibitory activity (CellTiter-Glo, 4 days)
# Type: cell-based
# CONDITION CONTEXT: NCI-H441 cells, 4 days, read-out: NCl-H441 IC50
pIC50: −log10 of the molar value.

COMPOUND	pIC50
CCO[C@@H]1C[C@H]2C(=O)NC3(CC(C)(C)C3)C(=O)N(C)[C@@H](C3CCCC3)C(=O)N(C)[C@H](C(=O)N(C)C)CC(=O)N(C)[C@@H]([C@H](C)OC)C(=O)N[C@@H]([C@@H](C)CC)C(=O)N(C)CC(=O)N(C)[C@H]3C/C=C\CCN(C3=O)[C@@H](Cc3ccc(C(F)(F)F)cc3)C(=O)N(C)CC(=O)N[C@@H](CCc3cc(F)c(C(F)(F)F)c(F)c3)C(=O)N2C1 [PP3169]	8.10
CCO[C@@H]1C[C@H]2C(=O)NC3(CC(C)(C)C3)C(=O)N(C)[C@@H](C3CCCC3)C(=O)N(C)[C@H](C(=O)N(C)C)CC(=O)N(C)[C@@H]([C@H](C)OC)C(=O)N[C@@H]([C@@H](C)CC)C(=O)N(C3CC3)CC(=O)N(C)[C@H]3C/C=C\CCN(C3=O)[C@@H](Cc3ccc(C(F)(F)F)cc3)C(=O)N(C)CC(=O)N[C@@H](CCc3cc(F)c(C(F)(F)F)c(F)c3)C(=O)N2C1 [PP3175]	7.82
CCCO[C@@H]1C[C@H]2C(=O)NC3(CC(C)(C)C3)C(=O)N(C)[C@@H](C3CCCC3)C(=O)N(C)[C@H](C(=O)N(C)CC)CC(=O)N(C)[C@@H](COCC)C(=O)N[C@@H]([C@@H](C)CC)C(=O)N(C3CC3)CC(=O)N(C)[C@H]3C/C=C\CCN(C3=O)[C@@H](Cc3ccc(C)cc3)C(=O)N(C)CC(=O)N[C@@H](CCc3ccc(C(F)(F)F)c(Cl)c3)C(=O)N2C1 [PP3462]	7.40
CCC[C@H]1C(=O)N[C@@H](CC(C)C)C(=O)N(C2CC2)CC(=O)N(C)[C@H]2C/C=C\CCN(C2=O)[C@@H](Cc2ccc(C)cc2)C(=O)N(C)CC(=O)N[C@@H](CCc2cc(F)c(C(F)(F)F)c(F)c2)C(=O)N2C[C@H](OCC)C[C@H]2C(=O)NC2(CC(C)(C)C2)C(=O)N(C)[C@@H](C2CCCC2)C(=O)N(C)[C@H](C(=O)N(C)C)CC(=O)N1C [PP2508]	6.91
CCc1cc(CC[C@@H]2NC(=O)CN(C)C(=O)[C@H](Cc3ccc(C(F)F)cc3)N3CC/C=C\C[C@@H](C3=O)N(C)C(=O)CN(C)C(=O)[C@H]([C@@H](C)OC)NC(=O)[C@H](CC)N(C)C(=O)C[C@@H](C(=O)N(C)C)N(C)C(=O)[C@H](C(CC)CC)N(C)C(=O)C3(CCC3)N(C)C(=O)[C@@H]3C[C@@H](OC(C)C)CN3C2=O)ccc1C(F)(F)F [PP3500]	7.91
CCC[C@H]1C(=O)N[C@@H]([C@@H](C)CC)C(=O)N2CCC[C@H]2C(=O)N(C)[C@H]2C/C=C\CCN(C2=O)[C@@H](Cc2ccc(C)cc2)C(=O)N(C)CC(=O)N[C@@H](CCc2ccc(C(F)(F)F)c(OC)c2)C(=O)N2C[C@H](OCC)C[C@H]2C(=O)OC2(CCC2)C(=O)N(C)[C@@H](C2CCCC2)C(=O)N(C)[C@H](C(=O)N(C)C)CC(=O)N1C [PP3386]	7.97
